Below, each of the variants is paired with its reported self-cleavage value.
B1: LINE1-full (parent)
chain: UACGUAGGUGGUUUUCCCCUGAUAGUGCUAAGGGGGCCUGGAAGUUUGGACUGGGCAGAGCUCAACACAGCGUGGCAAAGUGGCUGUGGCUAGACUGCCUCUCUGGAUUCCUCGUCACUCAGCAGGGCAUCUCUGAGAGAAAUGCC

variants of: B1; experiment: self-cleavage, relative activity (ratio to wild type); higher = more cleavage; in vitro, sequencing; the parent is a self-cleaving ribozyme

Some solved cases for reference:
1) G8A G97A ... 0.41
2) A69C U143G ... 0
3) C111U A141G ... 0.45
4) G34A G54A ... 0.78
5) U15C C98U ... 0.33
6) A65G U85A ... 0.07
7) U52C U130C ... 1.84
8) U81G ... 1.32

// recorded self-cleavage for G93A U115C : 0.04

// recorded self-cleavage for `A57G` : 0.88

// recorded self-cleavage for G53U A142G : 1.2

// recorded self-cleavage for A65U U91C : 0.08

// recorded self-cleavage for U5A U52A : 0.52

// recorded self-cleavage for U102C A142G : 1.53

// recorded self-cleavage for A65U G139A : 0.15

// recorded self-cleavage for U5A G34U : 0.88

// recorded self-cleavage for U15C C66U : 0.04

// recorded self-cleavage for U12G A43C : 1.02

// recorded self-cleavage for U14C A57U : 0.06

// recorded self-cleavage for G34A A50G : 0.87

// recorded self-cleavage for U47C U109A : 1.6
